Hi there, I'd appreciate the recorded shrunken log2 fold change for every entry that follows.
- System: Escherichia coli TOP10;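 note: peptides expressed intracellularly from a pBAD plasmid library in pooled LB shake-flask culture, induced with 0.3% L-arabinose, DNA abundance read by NGS, three biological replicates, DESeq2 with apeglm shrinkage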
- assay: shrunken log2 fold change of peptide-encoding DNA abundance (4.5 h post-induction vs induction); higher = less antimicrobial activity (less host growth inhibition)
- assay context: time post-induction: 4.5 h; library: site-saturation at positions 5, 18, 19, 20
In your answer, state the number alone without any accompanying words.

Reported shrunken log2 fold change for RRIRFRPPRLPRPRPRPCQAPRP was -0.0302

// sample RRIRTRPPRLPRPRPRPRPNPRP , its shrunken log2 fold change was 0.267

In plain terms, RRIRLRPPRLPRPRPRPSHFPRP has a documented shrunken log2 fold change of -0.0938

Just so you know, measured shrunken log2 fold change for RRIRQRPPRLPRPRPRPEGMPRP came out at 0.13

# shrunken log2 fold change (sequence: RRIRDRPPRLPRPRPRPFFMPRP ) is 0.033

Input RRIRIRPPRLPRPRPRPMQYPRP . Output shrunken log2 fold change: -0.016

Per the record, RRIRQRPPRLPRPRPRPYNMPRP has shrunken log2 fold change of -0.316

Reported shrunken log2 fold change ( RRIRPRPPRLPRPRPRPMDKPRP ) = -0.0612
